The measurements presented in this section are drawn from patent US20240270826A1.

# TARGET DESC: SARS-CoV-2 S1-RBD fused to human Fc (S1-RBD-Fc) (SARS-CoV-2 Wuhan; human)
# ASSAY REMARKS: SPR, antigen on chip

- BINDER: "NRCoV2-20 VHH (VHH) VHH: EVQLQQSGGGLVQPGGSLRLSCAASGRTFSNYVVGWFRQAPQAPGKDHEFVAVISGSDTETYYADSVKGRFTISRDNAKNTVYLQMNSLKPEDTAVYYCAADRGMSYYYTRATEYYYWGQGTQVTVSS"
  MEASUREMENT UNIT: "s⁻¹"
  koff: 0.0123
- BINDER: "NRCoV2-1d VHH (VHH) VHH: EVQLVESGGGSVQPGGSLRLSCAASGSTLDYYAIGWFRQAPGKEREWVSSVSSSDGNTLYADSVKGRFTISRDNAKNTVYLQMNSLKAEDTAVYVCAADYSMRPFAVGRWHRDYEYWGQGTQVTVSS"
  MEASUREMENT UNIT: "s⁻¹"
  koff: 0.00118
